assay: AUC (0 to t) in Sprague-Dawley rat at 10 mg/kg, iv measured upto 24 hrs by LC/MS/MS analysis; assay type: ADME, organism-based; parameters: time < 24 hrs, dose 10 mg/kg, route iv; details: in vivo
measured-property: AUC(0-t) at 24 h (ng·h/mL)
Reply with just the number (in ng·h/mL).

q: Fill in: AUC(0-t) at 24 h of CCNC(=O)c1noc(-c2cc(-c3ccc(C)cc3)c(O)cc2O)c1-c1ccc(CN2CCOCC2)cc1 is ___
a: 3010

* * *

test: Metabolic stability in human liver microsomes assessed as compound remaining in presence of NADPH cofactor under shaking condition for 10 mins measured after 60 mins by LC-MS/MS analysis; format: ADME, Microsome; details: time 70 min, read-out: Stability
Each item that follows carries a reported remaining at 1.167 h.
Enter your answer as a number in %; do not include the unit.

# cpd-smiles, measured-value
rows = [
    ("CCNC(=O)c1noc(-c2cc(-c3cccc(C(C)C)c3)c(O)cc2O)c1-c1ccc(CN2CCOCC2)cc1", 6.1),
]

q: Could you share which remaining at 1.167 h value was measured for CCNC(=O)c1noc(-c2cc(-c3cccc(Cl)c3)c(O)cc2O)c1-c1ccc(CN2CCOCC2)cc1 ?
a: 12.1

q: Item under review: CCNC(=O)c1noc(-c2cc(-c3ccc(C)cc3)c(O)cc2O)c1-c1ccc(CN2CCCCC2)cc1 . Reported remaining at 1.167 h?
a: 37.9

q: Please look up its remaining at 1.167 h: CCNC(=O)c1noc(-c2cc(-c3ccc(C)cc3)c(O)cc2O)c1-c1ccc(CN2CCOCC2)cc1
a: 27.4

q: Field request: remaining at 1.167 h | item: CNC(=O)c1noc(-c2cc(-c3ccc(C)cc3)c(O)cc2O)c1-c1ccc(CN2CCOCC2)cc1
a: 19.1

q: If you can, please state the reported remaining at 1.167 h value of CNC(=O)c1noc(-c2cc(-c3ccc(C)cc3)c(O)cc2O)c1-c1ccc(CN2CCCCC2)cc1 .
a: 38.3

q: Return reported remaining at 1.167 h; argument: CCNC(=O)c1noc(-c2cc(-c3cccc(CC)c3)c(O)cc2O)c1-c1ccc(CN2CCOCC2)cc1
a: 9.2

* * *

tested on: Candida albicans; experiment: Synergistic antifungal activity against fluconazole-resistant Candida albicans 901 assessed as inhibition of fungal growth in presence of fluconazole by checker board microdilution assay; format: functional
Entries whose MIC80 is below 4 mg/L take TRUE; entries at or above 4 mg/L take FALSE.

# compound, label-value
data = [
    ("CCNC(=O)c1noc(-c2cc(-c3ccc(CC)cc3)c(O)cc2O)c1-c1ccc(CN2CCOCC2)cc1", "TRUE"),
    ("CCNC(=O)c1noc(-c2cc(-c3cccc(C(F)(F)F)c3)c(O)cc2O)c1-c1ccc(CN2CCOCC2)cc1", "FALSE"),
    ("CCNC(=O)c1noc(-c2cc(-c3ccc(C)cc3)c(O)cc2O)c1-c1ccc(CNC2CCCC2)cc1", "FALSE"),
    ("Cc1ccc(-c2cc(-c3onc(C(=O)N4CCCC4)c3-c3ccc(CN4CCOCC4)cc3)c(O)cc2O)cc1", "FALSE"),
    ("CCNC(=O)c1noc(-c2cc(-c3ccc(C)cc3)c(O)cc2O)c1-c1ccc(CN2CCCCC2)cc1", "TRUE"),
    ("CCNC(=O)c1noc(-c2cc(-c3ccc(C)cc3)c(O)cc2O)c1-c1ccc(CN2CC(C)CC(C)C2)cc1 (stereo not drawn)", "TRUE"),
    ("Cc1ccc(-c2cc(-c3onc(C(=O)N4CCC4)c3-c3ccc(CN4CCCCC4)cc3)c(O)cc2O)cc1", "FALSE"),
    ("CCNC(=O)c1noc(-c2cc(-c3ccc(C)cc3)c(O)cc2O)c1-c1ccc(CN2CCCC2)cc1", "TRUE"),
    ("CCNC(=O)c1noc(-c2cc(-c3ccc(OC(F)(F)F)cc3)c(O)cc2O)c1-c1ccc(CN2CCOCC2)cc1", "FALSE"),
    ("CCNC(=O)c1noc(-c2cc(-c3ccc(C)cc3)c(O)cc2O)c1-c1ccc(CN2CCC(N3CCOCC3)CC2)cc1", "FALSE"),
]

q: Below 4 mg/L on MIC80? Entry CCNC(=O)c1noc(-c2cc(-c3ccc(C)cc3)c(O)cc2O)c1-c1ccc(CN2CCSCC2)cc1
a: TRUE

q: Dear reviewer, please state whether C[C@@H]1C[C@H]2O[C@@H]2/C=C\C=C\C(=O)Cc2c(Cl)c(O)cc(O)c2C(=O)O1 [RADICICOL] has MIC80 strictly beneath 4 mg/L.
a: TRUE

q: A record lists CCNC(=O)c1noc(-c2cc(-c3ccccc3F)c(O)cc2O)c1-c1ccc(CN2CCOCC2)cc1 . Is its MIC80 below 4 mg/L?
a: FALSE

q: Answer whether the compound Cc1ccc(-c2cc(-c3onc(C(=O)NC(C)C)c3-c3ccc(CN4CCOCC4)cc3)c(O)cc2O)cc1 has MIC80 strictly less than 4 mg/L
a: FALSE

q: Strictly below 4 mg/L: is that where MIC80 of CCNC(=O)c1noc(-c2cc(-c3ccc(-c4ccccc4)cc3)c(O)cc2O)c1-c1ccc(CN2CCOCC2)cc1 sits?
a: FALSE

q: Hi there! Is MIC80 for CCNC(=O)c1noc(-c2cc(-c3ccccc3)c(O)cc2O)c1-c1ccc(CN2CCOCC2)cc1 below 4 mg/L, do you know?
a: TRUE

q: Does the reported MIC80 of the following compound sit strictly below 4 mg/L? CCNC(=O)c1noc(-c2cc(-c3ccc(C)cc3)c(O)cc2O)c1-c1ccc(CNC2CCN(C)CC2)cc1
a: FALSE

q: Criterion: MIC80 strictly below 4 mg/L. Is it met by Cc1ccc(-c2cc(-c3onc(C(=O)NC4CCC4)c3-c3ccc(CN4CCOCC4)cc3)c(O)cc2O)cc1 ?
a: FALSE

q: Record CCNC(=O)c1noc(-c2cc(-c3cccc(Cl)c3)c(O)cc2O)c1-c1ccc(CN2CCOCC2)cc1 : is its MIC80 strictly below 4 mg/L?
a: TRUE

q: Quick check: MIC80 of CCNC(=O)c1noc(-c2cc(-c3ccc(Cl)cc3)c(O)cc2O)c1-c1ccc(CN2CCOCC2)cc1 under 4 mg/L?
a: TRUE

q: Input CCNC(=O)c1noc(-c2cc(-c3cccc(CC)c3)c(O)cc2O)c1-c1ccc(CN2CCOCC2)cc1 ; condition: MIC80 strictly below 4 mg/L. Does it hold?
a: TRUE

q: Check if MIC80 falls below 4 mg/L for CCN(CC)C(=O)c1noc(-c2cc(-c3ccc(C)cc3)c(O)cc2O)c1-c1ccc(CN2CCOCC2)cc1 .
a: FALSE

q: Please let me know if CCNC(=O)c1noc(-c2cc(-c3cccc(F)c3)c(O)cc2O)c1-c1ccc(CN2CCOCC2)cc1 shows MIC80 below 4 mg/L.
a: TRUE

q: Please check: MIC80 for CCNC(=O)c1noc(-c2cc(-c3cccc(C)c3)c(O)cc2O)c1-c1ccc(CN2CCOCC2)cc1 , strictly under 4 mg/L or not?
a: TRUE

q: Please check: MIC80 for CCNC(=O)c1noc(-c2cc(-c3cccc(OC(F)(F)F)c3)c(O)cc2O)c1-c1ccc(CN2CCOCC2)cc1 , strictly under 4 mg/L or not?
a: FALSE

q: In plain terms, does CCNC(=O)c1noc(-c2cc(-c3ccc(C)cc3)c(O)cc2O)c1-c1ccc(CN2CCN(C)CC2)cc1 come in under 4 mg/L for MIC80?
a: FALSE

q: Strictly below 4 mg/L: is that where MIC80 of CCNC(=O)c1noc(-c2cc(-c3ccc(C(C)C)cc3)c(O)cc2O)c1-c1ccc(CN2CCOCC2)cc1 sits?
a: FALSE

q: Find out if reported MIC80 for Cc1ccc(-c2cc(-c3onc(C(=O)NC4COC4)c3-c3ccc(CN4CCCCC4)cc3)c(O)cc2O)cc1 is less than 4 mg/L
a: FALSE

These entries and their values trace back to ChEMBL document CHEMBL5154804.
